- EXPERIMENT_NOTES: P. aeruginosa biofilm formation inhibitors, primary screen, PAO1 strain, BacTiter-Glo luminescence, LB-PBS (AID 1144)
- EXPERIMENTAL_SETUP: 12 h, higher = more signal
PARAMETER: z-score
Kindly provide the number alone.

Query block: Query: z-score; subject: "COc1ccc([C@H]2C[C@H]3C(Br)=C[C@]2(OC)C(=O)[C@]32CO2)cc1"
Result block: -0.64

----------
Examples of compounds with documented composite z-score follow.
- EXPERIMENT_NOTES: small-molecule binders of probe aNOTCH2, primary screen, biochemical, small-molecule microarray, 635/667 nm fluorescence (AID 1121);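 note: score merges feature fluorescence read at 667 nm with its signal to noise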
- EXPERIMENTAL_SETUP: higher = more signal
Write no unit; give the number alone.

See these solved cases before continuing.
Query block: Entry under review: "CC(=O)NCCCC[C@@H]1NC(=O)[C@@H]2C[C@H](C(=O)NCCCCCCN(C)C)[C@H](c3ccc(O)cc3)N2C1=O" . Reported composite z-score?
Result block: 0.112

Query block: What composite z-score value was documented for this compound, "C[N+](C)(C)CCCCNC(=O)[C@@H]1C[C@@H]2C(=O)N3CCC[C@H]3C(=O)N2[C@@H]1c1cccc(OCCO)c1" ?
Result block: -0.153

Query block: What does the record list as composite z-score for "CC(C)(C)OC(=O)CC[C@]1(C(=O)N2CCCCC2)N=C(c2ccc(OCCCO)cc2)O[C@H]1c1ccccc1" ?
Result block: -0.127

Query block: Param item = C=CCN(C(=O)C1N(c2ccc(CCO)cc2)C(=O)C2C(C(=O)O)C3C=CC21O3)C(C)(C)C (centres undefined) ; retrieve measured composite z-score.
Result block: -0.171

Query block: I would be grateful if you could share the reported composite z-score for "NC(=O)NCC#Cc1ccc2c(c1)[C@]1(C(=O)N2)[C@H](C(=O)N2CCCCCCC2)[C@H]2C(=O)O[C@H](c3ccccc3)[C@H](c3ccccc3)N2[C@@H]1c1ccccc1OCCO" .
Result block: 0.985

Query block: # input compound: "CO[C@H]1COC(=O)CC=C[C@H](C)COC(=O)[C@@H](OCc2ccccc2)C=C[C@@H]1C" ; wanted: its composite z-score
Result block: -0.14

Query block: // composite z-score lookup, key: "O=C1O[C@H](c2ccccc2)[C@H](c2ccccc2)N2[C@H]1[C@@H](C(=O)Nc1nc3ccccc3s1)[C@]1(C(=O)Nc3ccc(C#CC4=CCCCC4)cc31)[C@H]2c1ccccc1OCCO"
Result block: -0.14

Query block: What does the record list as composite z-score for CN1C(=O)C2C=CC(C(O)c3ccc(N(C)C)cc3)N(Nc3ccc([N+](=O)[O-])cc3[N+](=O)[O-])C2C1=O (centres undefined) ?
Result block: 0.0683

***
Query block: Look up composite z-score for this compound: "C=CCN1C(=O)[C@@]2(O[C@@H](CCn3cc([C@H](O)c4ccccc4)nn3)[C@H]([Si](C)(C)c3ccc(OC)cc3)[C@H]2C)c2cc(N3CCOC3=O)ccc21"
Result block: -0.0666

Query block: So what's the measured composite z-score for this one? "O=[N+]([O-])c1ccc(C[n+]2ccc3ccc(O)cc3c2)o1"
Result block: -0.0746

Query block: Give the measured composite z-score of "C=CCC1=C[C@H]2[C@H]([C@@H]3C=C[C@]2(CC=C)C(=O)[C@]32CO2)[C@@]2(CO2)C1=O" .
Result block: 0.082

Recorded values, source PubChem BioAssay.
